Test: chemical genetic growth profiling, strain panel (AID 1159580);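 note: tested at 20 µM; growth read once vehicle control cultures reached saturation at 30 °C; 1 = growth at the plate median or of vehicle wells; lower values mean less growth of the strain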
Conditions: S. cerevisiae deletion strains, growth OD, locus YNR049C, strain mso1, hits give low values
Screen size: about 5,500 compounds; about 2,000 (36%) were called active. Another 18% or so got no clear call; they are omitted. Some of the results follow.
MEASURED ATTRIBUTE: normalized growth
I'd appreciate a reply containing only the number, no unit.

Worked examples, 3 compounds total:
{"RECORD SMILES": "O=C(O)c1cccnc1", "OBSERVED MEASUREMENT": 0.994}
{"RECORD SMILES": "CCCN(CCC)S(=O)(=O)c1ccc(C(=O)O)cc1", "OBSERVED MEASUREMENT": 0.984}
{"RECORD SMILES": "C=C1C[C@]23C[C@@]1(O)CC[C@H]2[C@@]12C=C[C@H](O)[C@@](C)(C(=O)O1)[C@H]2[C@@H]3C(=O)O", "OBSERVED MEASUREMENT": 1.02}

Request: Determine from records and report normalized growth for OC[C@H]1O[C@@H](O[C@H]2[C@H](O)[C@@H](O)[C@@H](O)O[C@@H]2CO)[C@H](O)[C@@H](O)[C@@H]1O
Result: 0.998

Request: Determine from records and report normalized growth for OC[C@H]1O[C@@](CO)(O[C@@H]2O[C@H](CO)[C@@H](O)[C@H](O)[C@H]2O)[C@@H](O[C@@H]2O[C@H](CO)[C@@H](O)[C@H](O)[C@H]2O)[C@@H]1O
Result: 1.02

Request: Determine from records and report normalized growth for OC[C@H]1O[C@@H](O[C@@H]2[C@@H](CO)O[C@](O)(CO)[C@H]2O)[C@H](O)[C@@H](O)[C@H]1O
Result: 1.01

###

Test: chemical genetic growth profiling, strain panel (AID 1159580);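 note: tested at 20 µM; growth read once vehicle control cultures reached saturation at 30 °C; 1 = growth at the plate median or of vehicle wells; lower values mean less growth of the strain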
Conditions: S. cerevisiae deletion strains, growth OD, locus YLR221C, strain rsa3, hits give low values
About 2,000 (36%) of roughly 5,500 compounds were called active. Roughly 18% stayed inconclusive and do not appear here. The list shows a part of the results.
MEASURED ATTRIBUTE: normalized growth
I'd appreciate a reply containing only the number, no unit.

{"COMPOUND": "CC(C)CCCC(C)[C@H]1CCC2C3C(=O)C=C4C[C@@H](O)CC[C@]4(C)C3CC[C@@]21C (some centres not stated)", "MEASURED ATTRIBUTE": "normalized growth", "OBSERVED MEASUREMENT": 0.981}
{"COMPOUND": "NC1=NCCN1CC(=O)O", "MEASURED ATTRIBUTE": "normalized growth", "OBSERVED MEASUREMENT": 0.987}
{"COMPOUND": "CC(C)(C)NC[C@H](O)c1ccc(O)c(CO)c1", "MEASURED ATTRIBUTE": "normalized growth", "OBSERVED MEASUREMENT": 1.02}

Alright, here's another compound for you.
Request: Determine from records and report normalized growth for CS(=O)(=O)c1ccc([C@@H](O)[C@@H](CO)NC(=O)C(Cl)Cl)cc1
Result: 1.01

###

Assay: chemical genetic growth profiling, strain panel (AID 1159580);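 note: tested at 20 µM; growth read once vehicle control cultures reached saturation at 30 °C; 1 = growth at the plate median or of vehicle wells; lower values mean less growth of the strain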
Settings: S. cerevisiae deletion strains, growth OD, locus YHR079C, strain IRE1, hits give low values
Screen size: about 5,500 compounds; about 2,000 (36%) were called active. About 18% were inconclusive and are not listed. The list shows a part of the results.
Entries and their normalized growth values follow.
I'd appreciate a reply containing only the number, no unit.

Worked examples, 2 compounds total:
{"COMPOUND": "CNCCCC1c2ccccc2C=Cc2ccccc21", "normalized growth": 0.965}
{"COMPOUND": "COC(=O)c1c(C)c2c(c(C)c1O)OC(=O)c1c(C)c(Cl)c(O)c(Cl)c1O2", "normalized growth": 0.94}

Request: Determine from records and report normalized growth for CC(=O)O[C@H]1CC[C@@]2(C)C(C[C@@H](OC(C)=O)[C@@]3(C)C4=CC(=O)O[C@@H](c5ccoc5)[C@]4(C)CCC23)C1(C)C (stereo partly specified)
Result: 0.98

Request: Determine from records and report normalized growth for COc1cc(C(C)=O)cc(OC)c1O
Result: 0.983

Request: Determine from records and report normalized growth for COc1ccc2cc(CCC(C)=O)ccc2c1
Result: 0.956

Request: Determine from records and report normalized growth for CC(=O)O[C@@H]1CC[C@@]2(C)C(C[C@@H](OC(C)=O)[C@@]3(C)C4=CC(=O)O[C@@H](c5ccoc5)[C@]4(C)CCC23)C1(C)C (stereo partly specified)
Result: 0.998

Request: Determine from records and report normalized growth for C=C1C[C@]23C[C@@]1(O)CC[C@H]2[C@@]12C=C[C@H](O)[C@@](C)(C(=O)O1)[C@H]2[C@@H]3C(=O)O
Result: 0.998

Request: Determine from records and report normalized growth for C/C1=C/CC(C)(C)/C=C/C/C(C)=C/CC1
Result: 1.02

Request: Determine from records and report normalized growth for CC(CCC(=O)O)[C@H]1CCC2C3C(=O)C[C@@H]4CC(=O)CC[C@]4(C)C3CC(=O)[C@@]21C (stereo partly specified)
Result: 1.02

Request: Determine from records and report normalized growth for CC1=CCCC2C1(C)CCC(C)C2(C)CC/C(C)=C/C[n+]1cn(C)c2c(N)ncnc21 (stereo unspecified)
Result: 0.951

Request: Determine from records and report normalized growth for COC(=O)c1c(OC)cc2c(c1C)Oc1c(Cl)c(O)c(Cl)c(C)c1C(=O)O2
Result: 0.939

Request: Determine from records and report normalized growth for CC(C)=CCc1c2c(c3occ(-c4ccc(O)c(O)c4)c(=O)c3c1O)C=CC(C)(C)O2
Result: 0.926
